List of inhibition at 0.1 µM values.
Target: α5-GABAA receptor (Homo sapiens, UniProt P18507+P31644)
Construct: expressed in transfected cells; host or cells: HEK293, monoclonal stably transfected line
Sequence (P31644 32-462): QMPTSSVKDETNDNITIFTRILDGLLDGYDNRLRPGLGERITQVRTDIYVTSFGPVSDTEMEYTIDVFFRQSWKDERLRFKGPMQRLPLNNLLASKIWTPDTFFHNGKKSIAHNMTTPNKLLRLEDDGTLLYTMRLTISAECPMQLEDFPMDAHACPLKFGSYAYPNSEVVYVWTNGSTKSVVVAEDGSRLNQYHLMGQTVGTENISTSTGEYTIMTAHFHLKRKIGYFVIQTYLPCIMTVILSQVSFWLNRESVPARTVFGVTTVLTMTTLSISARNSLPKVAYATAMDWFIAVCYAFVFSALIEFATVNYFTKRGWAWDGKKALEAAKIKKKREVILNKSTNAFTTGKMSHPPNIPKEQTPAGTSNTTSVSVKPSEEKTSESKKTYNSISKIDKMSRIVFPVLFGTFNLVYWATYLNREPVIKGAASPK
Sequence (P28472 26-473 partner): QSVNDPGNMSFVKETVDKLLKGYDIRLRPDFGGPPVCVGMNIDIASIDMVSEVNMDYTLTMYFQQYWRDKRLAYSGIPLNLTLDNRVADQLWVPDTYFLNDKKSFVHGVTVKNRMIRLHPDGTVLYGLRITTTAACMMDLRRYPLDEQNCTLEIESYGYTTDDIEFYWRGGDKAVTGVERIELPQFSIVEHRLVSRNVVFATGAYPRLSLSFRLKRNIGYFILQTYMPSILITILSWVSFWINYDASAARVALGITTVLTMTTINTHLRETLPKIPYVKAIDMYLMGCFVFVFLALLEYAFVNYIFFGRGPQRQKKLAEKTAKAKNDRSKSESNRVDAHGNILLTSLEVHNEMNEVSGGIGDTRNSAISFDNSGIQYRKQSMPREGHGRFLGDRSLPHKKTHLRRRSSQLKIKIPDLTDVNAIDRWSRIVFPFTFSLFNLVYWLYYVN
Sequence (P18507 40-467 isoform P18507-1 limits assumed): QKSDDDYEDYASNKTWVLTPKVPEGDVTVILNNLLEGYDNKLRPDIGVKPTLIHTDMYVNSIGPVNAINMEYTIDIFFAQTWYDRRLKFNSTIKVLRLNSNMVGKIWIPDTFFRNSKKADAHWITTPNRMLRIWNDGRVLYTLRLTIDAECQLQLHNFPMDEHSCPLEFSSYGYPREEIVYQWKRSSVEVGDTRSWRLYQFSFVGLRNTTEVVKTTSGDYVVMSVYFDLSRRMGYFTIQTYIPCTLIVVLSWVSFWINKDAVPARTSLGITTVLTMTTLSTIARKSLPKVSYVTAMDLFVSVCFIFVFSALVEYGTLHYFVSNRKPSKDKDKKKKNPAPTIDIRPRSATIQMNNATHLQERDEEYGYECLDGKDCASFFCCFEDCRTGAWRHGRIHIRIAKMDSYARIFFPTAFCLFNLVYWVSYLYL
Assay: Cell-level screening: whole cell patch clamp, inverse agonist efficacy on α5-GABAA receptor expressed in HEK293
Assay type: cell-based
Details: drug 100 nM, GABA 0.05 μM, HEK293 expressing α5, β3 and γ2 subunits, clamped at −60 mV; read-out: Compound inverse agonist efficacy %
Description: The inventors used electrophysiological methods to determine the inverse agonist efficacy of the drugs to be tested on the α5-GABAA receptor. The detailed methods are as follows: Different subunits of GABAA receptors were expressed in human […] cell line 293 (HEK293) cell line. […] Drug concentration setting: the final drug concentration used in drug screening was 100 nM, and the GABA concentration range was 0.05 μM. […] Then the current induced by GABA could be detected. […]
The reply should be a number in %, with the unit left off.

- COc1cc2nnc(-c3cc(C)on3)n2nc1OCc1cnc(OCC2CCCO2)cn1 (stereo not drawn): 36.7
- COc1cc2nnc(-c3cc(C)on3)n2nc1OCc1ccc2c(n1)CCN(CC(F)(F)F)C2: 44.8
- COc1cc2nnc(-c3cc(C)on3)n2nc1OCc1ccc2c(n1)CCN(C(=O)NCC(F)F)C2: 49.3
- COCCn1cccc(COc2nn3c(-c4cc(C)on4)nnc3cc2OC)c1=O: 44.3
- COCCCOc1nnc(COc2nn3c(-c4cc(C)on4)nnc3cc2OC)cc1C: 50.1

Entry COc1cc2nnc(-c3cc(C)on3)n2nc1OCc1cccc(N(C)C)n1 ; inhibition at 0.1 µM = 37.1

Entry CCOC(=O)N1CCc2nc(COc3nn4c(-c5cc(C)on5)nnc4cc3OC)ccc2C1 ; inhibition at 0.1 µM = 59.6

Entry COc1cc2nnc(-c3cc(C)on3)n2nc1OCc1ccccc1C#N ; inhibition at 0.1 µM = 31.5

Entry COc1cc2nnc(-c3cc(C)on3)n2nc1OCc1ccc2c(n1)CCN(C(=O)NCC(F)(F)F)C2 ; inhibition at 0.1 µM = 52.2

Entry COc1cc2nnc(-c3cc(C)on3)n2nc1OCc1ccc2nc(C3CCOCC3)cn2n1 ; inhibition at 0.1 µM = 72.6

Entry COCc1ccc(COc2nn3c(-c4cc(C)on4)nnc3cc2OC)nc1 ; inhibition at 0.1 µM = 41.6
